assay: Binding affinity to self-complementary RNA-12mer duplex (5'-rCGCGAAUUCGCG-3')2 (unknown origin) assessed as melting temperature by […] assay (reference value: 61 degC); conditions: Homo sapiens
endpointLabel: Tm (°C)
Kindly answer with a numeric value in °C, unit omitted.

The cases that follow already have their Tm on record.
CCCCCCCCCCCCCCCCCC(=O)Oc1c(C)c(C)c2c(c1C)CC[C@@](C)(CCCCCCCCCOCc1cn(CCCCCCCCCCCCCCCCSC[C@H]3O[C@@H](O[C@@H]4[C@@H](O)[C@H](N)C[C@H](N)[C@H]4O[C@H]4O[C@H](CN)[C@@H](O)[C@H](O)[C@H]4N)[C@H](O)[C@@H]3O[C@H]3O[C@@H](CN)[C@@H](O)[C@H](O)[C@H]3N)nn1)O2 :: 65.6
NC[C@@H]1O[C@H](O[C@H]2[C@@H](O)[C@H](O[C@@H]3[C@@H](O)[C@H](N)C[C@H](N)[C@H]3O[C@H]3O[C@H](CN)[C@@H](O)[C@H](O)[C@H]3N)O[C@@H]2CO)[C@H](N)[C@@H](O)[C@@H]1O :: 64.2
CCCCCCCCCCCCCCCCOC(COC[C@]1(C)CCc2c(C)c(O)c(C)c(C)c2O1)OCc1cn(CCCCCCCCCCCCCCCCSC[C@H]2O[C@@H](O[C@@H]3[C@@H](O)[C@H](N)C[C@H](N)[C@H]3O[C@H]3O[C@H](CN)[C@@H](O)[C@H](O)[C@H]3N)[C@H](O)[C@@H]2O[C@H]2O[C@@H](CN)[C@@H](O)[C@H](O)[C@H]2N)nn1 (some centres undefined) :: 72.8

Proceed to the following item.
Data request: Could you please provide reported Tm for "CCCCCCCC/C=C/CCCCCCCC(=O)Oc1c(C)c(C)c2c(c1C)CC[C@@](C)(CCCCCCCCCOCc1cn(CCCCCCCCCCCCCCCCSC[C@H]3O[C@@H](O[C@@H]4[C@@H](O)[C@H](N)C[C@H](N)[C@H]4O[C@H]4O[C@H](CN)[C@@H](O)[C@H](O)[C@H]4N)[C@H](O)[C@@H]3O[C@H]3O[C@@H](CN)[C@@H](O)[C@H](O)[C@H]3N)nn1)O2" ? Thanks!
Data returned: 66.8

Provenance of the data: ChEMBL document CHEMBL3393030
